Task for the reader: assign each of the following molecules its reported ΔR/DRAΔ2 POA.
# protocol_summary: Probe fluorescence ratio response to palmitoleic acid relative to ADIFAB2
# Assay type: binding
# assay_setup: Table 5

{"molecule": "L2P8A5: FABP probe, substitutions M18V G31A F55W A73W vs SEQ ID NO: 2 (protein, listed as Rattus norvegicus, PEPTIDE (1)...(131) wild-type rat intestinal fatty acid binding protein) AFDGTWKVDRNENYEKFVEKMGINVVKRKLAAHDNLKLTITQEGNKFTVKESSNWRNIDVVFELGVDFAYSLWDGTELTGTWTMEGNKLVGKFKRVDNGKELIAVREISGNELIQTYTYEGVEAKRIFKKE", "result": 2.0}

With those in mind, consider the next molecule.
Task item: What does the record list as ΔR/DRAΔ2 POA for L2P9E12: FABP probe, substitutions M18L F55L A73I vs SEQ ID NO: 2 (protein, listed as Rattus norvegicus, PEPTIDE (1)...(131) wild-type rat intestinal fatty acid binding protein) AFDGTWKVDRNENYEKFLEKMGINVVKRKLGAHDNLKLTITQEGNKFTVKESSNLRNIDVVFELGVDFAYSLIDGTELTGTWTMEGNKLVGKFKRVDNGKELIAVREISGNELIQTYTYEGVEAKRIFKKE ?
Reply: 0.8
